- Tested target: Recombinant human androgen receptor (hAR) (Homo sapiens, UniProt P10275)
- Construct: made in house; host or cells: Sf9 insect cells
- Sequence (P10275 1-920): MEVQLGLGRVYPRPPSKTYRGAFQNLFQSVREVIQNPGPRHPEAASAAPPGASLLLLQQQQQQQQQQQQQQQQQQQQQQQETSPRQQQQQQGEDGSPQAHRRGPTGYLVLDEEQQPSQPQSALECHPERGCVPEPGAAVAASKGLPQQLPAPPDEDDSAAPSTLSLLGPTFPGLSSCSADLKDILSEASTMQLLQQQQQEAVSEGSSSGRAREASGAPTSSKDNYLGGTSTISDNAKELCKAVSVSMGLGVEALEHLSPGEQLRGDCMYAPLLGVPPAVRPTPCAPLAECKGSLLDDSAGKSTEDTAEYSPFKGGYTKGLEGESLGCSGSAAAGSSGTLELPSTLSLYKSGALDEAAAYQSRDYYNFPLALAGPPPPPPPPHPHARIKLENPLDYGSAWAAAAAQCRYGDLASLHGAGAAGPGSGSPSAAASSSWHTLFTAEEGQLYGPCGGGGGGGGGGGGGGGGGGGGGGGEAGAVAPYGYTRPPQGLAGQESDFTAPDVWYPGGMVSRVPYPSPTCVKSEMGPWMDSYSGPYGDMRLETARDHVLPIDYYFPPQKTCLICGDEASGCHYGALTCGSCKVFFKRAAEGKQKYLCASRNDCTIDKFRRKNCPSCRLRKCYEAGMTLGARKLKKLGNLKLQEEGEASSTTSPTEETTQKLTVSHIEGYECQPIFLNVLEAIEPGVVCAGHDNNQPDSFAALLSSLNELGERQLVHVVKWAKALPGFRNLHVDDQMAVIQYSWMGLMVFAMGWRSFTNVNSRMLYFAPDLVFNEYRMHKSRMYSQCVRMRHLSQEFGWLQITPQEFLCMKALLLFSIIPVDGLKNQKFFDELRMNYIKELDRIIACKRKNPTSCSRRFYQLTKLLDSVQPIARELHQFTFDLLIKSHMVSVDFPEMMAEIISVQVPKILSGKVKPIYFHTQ
- Experiment description: AR competition binding assay (3H-mibolerone tracer)
- Conditions: competition with 3H-Mib, hAR extract from Sf9 cells, +4° C. over night; read-out: AR_LT IC50
Quick reference for pIC50 among some compounds
// returns pIC50 (minus log10 of molar concentration), number only

Recorded results for 2 compounds are shown here.
Compound	Tested target	pIC50
CCCC[C@@H](CO)Nc1ccc([N+](=O)[O-])c(C)n1 [Example-60]	Recombinant human androgen receptor (hAR) (Homo sapiens, UniProt P10275)	7.17
Cc1nc(NC(C)(C)CO)ccc1[N+](=O)[O-] [Example-8]	Recombinant human androgen receptor (hAR) (Homo sapiens, UniProt P10275)	6.62

So for N#Cc1ccc(NC2(CO)CCCC2)cc1C(F)(F)F [Example-19] , the logged pIC50 turned out to be 6.88

Entry source: patent US20080058383A1
